Can you tell me viability at 65 h, 100 µM for the items I'm about to list?
Test: Cell viability assay (EZ-Cytox) in HepAD38 cells
Assay type: cell-based
Conditions: human, @100 μM, 65 hours of treatment, read-out: Cytotoxicity % Livability (@100 μM)
Give the value in % but do not write % after it.

Sample "O=C(Nc1ccc(F)c(Cl)c1)N(Cc1nnc2n1CCCCC2)c1ccc2c(c1)OCO2" ; viability at 65 h, 100 µM observed: 100

Kindly note the recorded viability at 65 h, 100 µM for "O=C(Nc1ccc(F)c(Cl)c1)N(Cc1nnc2n1CCCCC2)c1ccc(F)c(F)c1" , which is 92.9

Summary for this molecule, "CC(C)Oc1ccc(N(Cc2nnc3n2CCCCC3)C(=O)Nc2ccc(F)c(Cl)c2)cc1" : viability at 65 h, 100 µM is 93.2

Reported viability at 65 h, 100 µM of "COc1cc(N(Cc2nnc3n2CCOCC3)C(=O)Nc2ccc(F)c(Cl)c2)ccn1" : 81.2

Measured viability at 65 h, 100 µM, "O=C(Nc1ccc(F)c(Cl)c1)N(Cc1nnc2n1CCCCC2)c1ccon1" : 90.4

viability at 65 h, 100 µM in this record for "COc1ccc(N(Cc2nnc3n2CCOCC3)C(=O)Nc2ccc(F)c(Cl)c2)cn1" : 88.6

Consider "O=C(Nc1ccc(F)c(Cl)c1)N(Cc1nnc2n1CCOC2)c1ccc2c(c1)OCO2" . Its measured viability at 65 h, 100 µM is 83.7

For this molecule ( "COCCn1c(CN(C(=O)Nc2ccc(F)c(Cl)c2)c2ccc(OC)nc2)nnc1C(F)(F)F" ), measured viability at 65 h, 100 µM is 55.4

viability at 65 h, 100 µM reported for this molecule "N#Cc1cccc(NC(=O)N(Cc2nnc3n2CCCCC3)c2ccc3c(c2)OCO3)c1" : 91.6

Entry "COc1ccc(N(Cc2nnc3n2CCCCC3)C(=O)Nc2ccc(F)c(Cl)c2)cn1" , viability at 65 h, 100 µM reported as 103
